From: patent US20240409585A1

# ASSAY TARGET: PE-labeled human PD-L1-Ig binding to Jurkat cell line over-expressing human PD-1 (Jurkat-PD-1) (Homo sapiens)
# Construct: expressed in transfected cells; host or cells: Jurkat
# Sequence (Q15116 25-288): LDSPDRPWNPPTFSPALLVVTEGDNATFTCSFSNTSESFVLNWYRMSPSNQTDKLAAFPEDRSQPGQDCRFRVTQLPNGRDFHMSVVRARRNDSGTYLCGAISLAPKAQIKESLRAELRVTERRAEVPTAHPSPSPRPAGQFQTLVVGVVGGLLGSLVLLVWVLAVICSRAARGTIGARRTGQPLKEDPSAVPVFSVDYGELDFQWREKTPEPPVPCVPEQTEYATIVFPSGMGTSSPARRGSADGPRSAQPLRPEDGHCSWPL
# TEST PROTOCOL: Jurkat-PD-1 Cell Binding High-Content Screening Assay (CBA): Method 1
# MEASUREMENT CONTEXT: Jurkat-hPD-1 cells, PE-labeled PD-L1-Ig 20 nM final; read-out: Jurkat HPDL1 PD1 IC50 (uM) (Method 1)
Bridge positions count the residues as written; N and C are the ends. Square brackets hold non-standard residues; d marks the D form. Peptide text beside a SMILES is read from it. Bip = N[C@@H](Cc1ccc(-c2ccccc2)cc1)C(=O)O; 2Nal = N[C@@H](Cc1ccc2ccccc2c1)C(=O)O; NMeA = CN[C@@H](C)C(=O)O; Dab = NCC[C@H](N)C(=O)O
IC50 listing for selected molecules.
Reply numerically in µM, unit not repeated.

CC(C)C[C@@H]1NC(=O)[C@H](CCN)NC(=O)[C@@H](CC(C)C)NC(=O)[C@H](C)N(C)C(=O)[C@H](CCCNC(=N)N)NC(=O)[C@H](Cc2ccc(-c3ccccc3)cc2)NC(=O)[C@H](C(C)C)NC(=O)[C@H](Cc2c[nH]c3ccccc23)NC(=O)[C@H](CC(=O)O)NC(=O)[C@H](Cc2ccc(O)cc2)NC(=O)[C@H](CC(N)=O)NC(=O)CSC[C@@H](C(=O)N[C@@H](CO)C(N)=O)NC(=O)[C@H]([C@@H](C)O)NC(=O)[C@H](C(C)C)NC1=O [Compound 1179] ({CH2CO}-NYDWV[Bip]R[NMeA][dL][Dab]LVTCS-NH2; thioether N-14); 0.07

Next up:
input: Query IC50 for CC(C)C[C@@H]1NC(=O)[C@H](Cc2c[nH]c3ccccc23)NC(=O)[C@H](CC(=O)O)NC(=O)[C@H](Cc2ccc3ccccc3c2)NC(=O)[C@H](Cc2ccccc2)NC(=O)CSC[C@@H](C(=O)N[C@@H](C)C(N)=O)NC(=O)[C@H](CO)NC(=O)[C@H](C(C)C)NC(=O)[C@H](CC(C)C)NC(=O)[C@H](CC(N)=O)NC(=O)[C@@H](C)NC(=O)[C@H](C)N(C)C(=O)[C@H](C(C)C)NC(=O)[C@H](Cc2ccc(-c3ccccc3)cc2)NC1=O [Compound 1800] ({CH2CO}-F[2Nal]DWL[Bip]V[NMeA][dA]NLVSCA-NH2; thioether N-14)
output: 0.18
